# tested on: various mutants of kinase EGFR (BaF3 cell lines stably transfected with kinase) (Homo sapiens, UniProt P00533, C797S/L858R/T790M)
# Construct: expressed in transfected cells; host or cells: BaF3
# Sequence (P00533 25-1210 T790M/C797S/L858R): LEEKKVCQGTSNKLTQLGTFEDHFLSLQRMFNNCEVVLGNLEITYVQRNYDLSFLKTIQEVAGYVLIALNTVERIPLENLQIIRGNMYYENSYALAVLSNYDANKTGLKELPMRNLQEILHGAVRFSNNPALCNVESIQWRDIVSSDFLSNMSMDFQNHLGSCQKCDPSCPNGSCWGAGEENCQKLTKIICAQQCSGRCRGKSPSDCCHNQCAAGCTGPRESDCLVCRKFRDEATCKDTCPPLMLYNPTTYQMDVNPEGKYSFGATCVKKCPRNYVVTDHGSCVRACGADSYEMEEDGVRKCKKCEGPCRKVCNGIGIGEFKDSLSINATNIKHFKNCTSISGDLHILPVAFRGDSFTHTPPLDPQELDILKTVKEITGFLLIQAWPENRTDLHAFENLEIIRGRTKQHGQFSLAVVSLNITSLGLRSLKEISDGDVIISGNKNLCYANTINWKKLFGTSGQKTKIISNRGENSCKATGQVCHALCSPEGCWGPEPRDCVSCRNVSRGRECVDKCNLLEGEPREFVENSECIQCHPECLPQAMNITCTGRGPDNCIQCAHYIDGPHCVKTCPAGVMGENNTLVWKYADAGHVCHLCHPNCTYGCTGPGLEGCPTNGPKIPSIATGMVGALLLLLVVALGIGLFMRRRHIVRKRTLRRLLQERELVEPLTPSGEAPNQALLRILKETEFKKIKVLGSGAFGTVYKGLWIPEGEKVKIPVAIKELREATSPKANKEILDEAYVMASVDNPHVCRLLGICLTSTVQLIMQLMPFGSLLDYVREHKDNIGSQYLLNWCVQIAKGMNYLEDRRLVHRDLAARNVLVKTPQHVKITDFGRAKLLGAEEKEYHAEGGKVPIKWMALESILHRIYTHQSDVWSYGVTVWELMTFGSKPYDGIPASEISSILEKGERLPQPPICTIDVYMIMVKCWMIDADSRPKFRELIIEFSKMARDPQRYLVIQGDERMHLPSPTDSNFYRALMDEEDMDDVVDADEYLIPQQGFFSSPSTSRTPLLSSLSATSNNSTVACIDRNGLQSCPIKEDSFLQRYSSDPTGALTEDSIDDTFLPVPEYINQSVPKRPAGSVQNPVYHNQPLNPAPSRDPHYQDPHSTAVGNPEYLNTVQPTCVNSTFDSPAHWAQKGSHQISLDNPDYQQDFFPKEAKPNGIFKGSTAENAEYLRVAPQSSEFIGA
# experiment description: Growth inhibitory activity of compounds on BaF3 cell lines stably transfected with kinase (MTS, 48 h)
# Type: cell-based
# condition notes: BaF3 cells stably transfected with EGFR L858R/T790M/C797S, read-out: IC50, growth inhibition, L858R/T790M/C797S
Readings of IC50 for the listed molecules

Examples with answers:
Recorded IC50 for COc1nc(N2CCC(N3CCN(C)CC3)CC2)ccc1Nc1ncc(Cl)c(Nc2ccc3nccnc3c2N(C2CC2)S(C)(=O)=O)n1 [Compound I-239] , please?
50 to 500 nM

Recorded IC50 for CCc1cc(Nc2ncc(Br)c(Nc3ccc4nccnc4c3N(C)S(C)(=O)=O)n2)c(OC)cc1N1CCC(N(C)C)CC1 [Compound I-16] , please?
≤ 50 nM

Recorded IC50 for CCc1cc(Nc2ncc(Br)c(Nc3ccc4nccnc4c3N(C)S(=O)(=O)C3CC3)n2)c(OC)nc1N1CCC(N2CCN(C)CC2)CC1 [Compound I-218] , please?
≤ 50 nM

Continuing:
Recorded IC50 for CCc1cc(Nc2ncc(Br)c(Nc3ccc4nccnc4c3N(C)S(=O)(=O)C(F)(F)F)n2)c(OC)cc1N1CCC(N(C)C)CC1 [Compound I-127] , please?
50 to 500 nM

Recorded IC50 for CCS(=O)(=O)N(C)c1c(Nc2nc(Nc3cc(C)c(N4CCC(N5CCN(C)CC5)CC4)cc3OC)ncc2Cl)ccc2nccnc12 [Compound I-114] , please?
≤ 50 nM

Recorded IC50 for C=Cc1cc(Nc2ncc(Cl)c(Nc3ccc4nccnc4c3N(C)S(=O)(=O)C(F)(F)F)n2)c(OC(F)(F)F)cc1N1CCC(N2CCN(C)CC2)CC1 [Compound I-263] , please?
50 to 500 nM

Recorded IC50 for COc1nc(N2CCC(N3CCN(C)CC3)CC2)ccc1Nc1ncc(Br)c(Nc2ccc3nccnc3c2N(C)S(C)(=O)=O)n1 [Compound I-4] , please?
50 to 500 nM

Recorded IC50 for COc1cc(N2CCC(N3CCN(C)CC3)CC2)c(C)cc1Nc1ncc(C)c(Nc2ccc3nccnc3c2N(C)S(C)(=O)=O)n1 [Compound I-276] , please?
≤ 50 nM

Recorded IC50 for COc1cc(N2CCN(C)CC2)c(C)cc1Nc1ncc(C(F)(F)F)c(Nc2ccc3nccnc3c2N(C)S(C)(=O)=O)n1 [Compound I-207] , please?
≤ 50 nM

Recorded IC50 for CCc1cc(Nc2ncc(Br)c(Nc3ccc4nccnc4c3N(C)S(=O)(=O)C3CC3)n2)c(OC)cc1N1CCC(N2CCN(C)CC2)CC1 [Compound I-105] , please?
≤ 50 nM

Recorded IC50 for COc1cc(N2CCC(N3CCN(C)CC3)CC2)c(C)cc1Nc1ncc(Br)c(Nc2ccc3nccnc3c2N(C)S(C)(=O)=O)n1 [Compound I-2] , please?
≤ 50 nM

Recorded IC50 for CCc1cc(Nc2ncc(Cl)c(Nc3ccc4nccnc4c3N(C)S(=O)(=O)C3CC3)n2)c(OC(F)(F)F)cc1N1CCC(N2CCN(C)CC2)CC1 [Compound I-121] , please?
50 to 500 nM

Recorded IC50 for COc1ccc(CN2CCN(C)CC2)cc1Nc1ncc(Br)c(Nc2ccc3nccnc3c2N(C)S(C)(=O)=O)n1 [Compound I-83] , please?
500 to 2500 nM

Recorded IC50 for CCc1cc(Nc2ncc(Cl)c(Nc3ccc4nccnc4c3N(C)S(=O)(=O)C(F)(F)F)n2)c(OC(F)(F)F)cc1N1CCC(N2CCN(C)CC2)CC1 [Compound I-131] , please?
50 to 500 nM

Recorded IC50 for CCc1cc(Nc2ncc([N+](=O)[O-])c(Nc3ccc4nccnc4c3N(C)S(C)(=O)=O)n2)c(OC)nc1N1CCC(N2CCN(C)CC2)CC1 [Compound I-190] , please?
50 to 500 nM

Recorded IC50 for CCc1cc(Nc2ncc(Cl)c(Nc3ccc4nccnc4c3N(C)S(=O)(=O)CC)n2)c(OC)cc1N1CCC(N(C)C)C1 (stereo not shown) [Compound I-118] , please?
≤ 50 nM

Recorded IC50 for COc1ccc(NC(=O)CN(C)C)cc1Nc1ncc(Br)c(Nc2ccc3nccnc3c2N(C)S(C)(=O)=O)n1 [Compound I-85] , please?
50 to 500 nM

Recorded IC50 for CCc1cc(Nc2ncc(Cl)c(Nc3ccc4nccnc4c3N(C)S(=O)(=O)C3CC3)n2)c(OC)cc1N1CCC(N2CCN(C)CC2)CC1 [Compound I-120] , please?
≤ 50 nM

Recorded IC50 for CCc1cc(Nc2ncc(Cl)c(Nc3ccc4nccnc4c3N(C)S(=O)(=O)C3CC3)n2)c(OC)cc1N1CCC(N(C)C)CC1 [Compound I-122] , please?
≤ 50 nM

###

# tested on: various mutants of kinase EGFR (BaF3 cell lines stably transfected with kinase) (Homo sapiens, UniProt P00533, C797S/L858R/T790M)
# Construct: expressed in transfected cells; host or cells: BaF3
# experiment description: Growth inhibitory activity of compounds on BaF3 cell lines stably transfected with kinase (MTS, 48 h)
# Type: cell-based
# condition notes: BaF3 cells stably transfected with EGFR L858R/T790M/C797S, read-out: IC50, growth inhibition, L858R/T790M/C797S
# Method: The activity of compounds against various mutants of kinase EGFR was evaluated by their effect of inhibiting growth of BaF3 cell lines stably transfected with kinase. The specific test method was given as follows: […] 3) Compound test: cells were incubated into a 96-well culture plate, the volume of cytosol was 90 µL, and then 10 µL of the compound at each gradient concentration was added. […] OD values at 490 nm were measured by a microplate reader (VARIOSKAN FLASH, Thermo). […]
pIC50: −log10 of the molar value.
Readings of pIC50 for the listed molecules

Examples with answers:
Recorded pIC50 for COc1cc(N2CCC(N3CCN(C)CC3)CC2)c(CC2CC2)cc1Nc1ncc(Br)c(Nc2ccc3nccnc3c2N(C)S(C)(=O)=O)n1 , please?
≥ 7.30

Recorded pIC50 for COc1ccc(C(=O)N2CCN(C)CC2)cc1Nc1ncc(Br)c(Nc2ccc3nccnc3c2N(C)S(C)(=O)=O)n1 , please?
6.30 to 7.30

Recorded pIC50 for CCN(c1c(Nc2nc(Nc3cc(C)c(N4CCC(N5CCN(C)CC5)CC4)nc3OC)ncc2Br)ccc2nccnc12)S(C)(=O)=O , please?
5.60 to 6.30

Recorded pIC50 for CCc1cc(Nc2ncc(F)c(Nc3ccc4nccnc4c3N(C)S(C)(=O)=O)n2)c(OC)cc1N1CCN(C)CC1 , please?
≥ 7.30

Recorded pIC50 for CCc1cc(Nc2ncc(Cl)c(Nc3ccc4nccnc4c3N(C)S(C)(=O)=O)n2)c(OC)cc1N1CCC(N(C)C)CC1 , please?
≥ 7.30

Recorded pIC50 for C=Cc1cc(Nc2ncc(Cl)c(Nc3ccc4nccnc4c3N(C)S(C)(=O)=O)n2)c(OC(F)(F)F)cc1N1CCC(N2CCN(C)CC2)CC1 , please?
≥ 7.30

Recorded pIC50 for CCc1cc(Nc2ncc(F)c(Nc3ccc4nccnc4c3N(C)S(C)(=O)=O)n2)c(OC)nc1N1CCC(N2CCN(C)CC2)CC1 , please?
≥ 7.30

Recorded pIC50 for CCc1cc(Nc2ncc(Cl)c(Nc3ccc4nccnc4c3N(CC)S(C)(=O)=O)n2)c(OC)cc1N1CCC(N(C)C)C1 (stereo not shown) , please?
≥ 7.30

Continuing:
Recorded pIC50 for CCc1cc(Nc2ncc(Br)c(Nc3ccc4nccnc4c3N(C)S(C)(=O)=O)n2)c(OC)cc1N1CCC(N2CCN(C)CC2)CC1 , please?
≥ 7.30

Recorded pIC50 for COc1cc(N2CCC(N3CCN(C)CC3)CC2)c(C)cc1Nc1ncc([N+](=O)[O-])c(Nc2ccc3nccnc3c2N(C)S(C)(=O)=O)n1 , please?
≥ 7.30

Recorded pIC50 for CCc1cc(Nc2ncc([N+](=O)[O-])c(Nc3ccc4nccnc4c3N(C)S(C)(=O)=O)n2)c(OC)cc1N1CCC(N2CCN(C)CC2)CC1 , please?
≥ 7.30

Recorded pIC50 for CCc1cc(Nc2ncc(C3CC3)c(Nc3ccc4nccnc4c3N(C)S(C)(=O)=O)n2)c(OC)cc1N1CCC(N(C)C)C1 (stereo not shown) , please?
≥ 7.30

Recorded pIC50 for CCc1cc(Nc2ncc(Cl)c(Nc3ccc4nccnc4c3N(C3CC3)S(C)(=O)=O)n2)c(OC)cc1N1CCC(N2CCN(C)CC2)CC1 , please?
≥ 7.30

Recorded pIC50 for CCc1cc(Nc2ncc(C)c(Nc3ccc4nccnc4c3N(C)S(C)(=O)=O)n2)c(OC)cc1N1CCC(N2CCN(C)CC2)CC1 , please?
≥ 7.30

Recorded pIC50 for COc1cc(N2CCC(N3CCN(C)CC3)CC2)c(C)cc1Nc1ncc(C(F)(F)F)c(Nc2ccc3nccnc3c2N(C)S(C)(=O)=O)n1 , please?
≥ 7.30

Recorded pIC50 for CCN(c1c(Nc2nc(Nc3cc(C)c(N4CCC(N(C)C)CC4)cc3OC)ncc2Cl)ccc2nccnc12)S(C)(=O)=O , please?
≥ 7.30

Recorded pIC50 for COc1cc(N2CCC(N(C)C)CC2)c(C)cc1Nc1ncc(Br)c(Nc2ccc3nccnc3c2N(C)S(C)(=O)=O)n1 , please?
≥ 7.30

Recorded pIC50 for CCN(c1c(Nc2nc(Nc3ccc(N4CCC(N5CCN(C)CC5)CC4)nc3OC)ncc2Br)ccc2nccnc12)S(C)(=O)=O , please?
6.30 to 7.30

Recorded pIC50 for COc1cc(N2CCC(N3CCN(C)CC3)CC2)ccc1Nc1ncc(Br)c(Nc2ccc3nccnc3c2N(C)S(=O)(=O)C2CC2)n1 , please?
≥ 7.30

Recorded pIC50 for CCN(c1c(Nc2nc(Nc3ccc(N4CCC(N5CCN(C)CC5)CC4)nc3OC)ncc2Cl)ccc2nccnc12)S(C)(=O)=O , please?
6.30 to 7.30

Recorded pIC50 for CCc1cc(Nc2ncc(Br)c(Nc3ccc4nccnc4c3N(C)S(=O)(=O)C(C)C)n2)c(OC)cc1N1CCC(N2CCN(C)CC2)CC1 , please?
≥ 7.30

Recorded pIC50 for COc1cc(N2CCC(N3CCN(C)CC3)CC2)ccc1Nc1ncc(Cl)c(Nc2ccc3nccnc3c2N(C)S(=O)(=O)C(F)(F)F)n1 , please?
6.30 to 7.30
